Every entry's value here was drawn from patent US7390831B2.

System: T47D human breast cancer cells
EXPERIMENT_SUMMARY: T47D Human Breast Cancer Cells Assay (alkaline phosphatase, luminescence)
Format: cell-based
EXPERIMENTAL_CONTEXT: Homo sapiens, T47D, 24 h, read-out: T47D IC50 (nM), T47D cells, 24 h with test compound, alkaline phosphatase assay (SEAP kit)
OBSERVABLE: IC50 (nM)
Numbers only; they are read as nM.

COc1ccc([C@H]2OC[C@@]3(C)C(CC[C@@]3(O)C#Cc3ccc(C(C)(C)C)cc3)C3CCC4=CC(=O)CCC4=C32)cc1 (stereo partly shown) [Compound 9]    264
CC#C[C@]1(O)CCC2C3CCC4=CC(=O)CCC4=C3[C@@H](c3ccc(N(C)C)cc3)OC[C@@]21C (stereo partly shown) [Compound 7]    116
C=C1CCOC12CC[C@H]1[C@@H]3CCC4=CC(=O)CCC4=C3[C@@H](c3ccc(N(C)C)cc3)OC[C@@]12C (stereo partly shown) [Compound 38]    1.1

Query molecule follows.
Prompt: Fill in the blank: the reported IC50 of C=C(CCO)[C@]1(O)CCC2C3CCC4=CC(=O)CCC4=C3[C@@H](c3ccc(OC)cc3)OC[C@@]21C (stereo partly shown) [Compound 24] is ____.
Response: 176

----------
Test system: T47D human breast cancer cells
EXPERIMENT_SUMMARY: T47D Human Breast Cancer Cells Assay (alkaline phosphatase, luminescence)
Format: cell-based
EXPERIMENTAL_CONTEXT: Homo sapiens, T47D, 24 h, read-out: T47D IC50 (nM), T47D cells, 24 h with test compound, alkaline phosphatase assay (SEAP kit)
IC50 listing for selected compounds.

Some entries whose results are on file:
COc1ccc([C@@H]2OC[C@@]3(C)C(CC[C@@]3(O)C#Cc3ccc(C(F)(F)F)cc3)C3CCC4=CC(=O)CCC4=C32)cc1 (stereo partly drawn)    > 1000 nM
C#C[C@]1(O)CCC2C3CCC4=CC(=O)CCC4=C3[C@H](c3ccc(OC)cc3)OC[C@@]21C (stereo partly drawn)    > 1000 nM

Prompt: What IC50 appears in the records for this compound with T47D human breast cancer cells? C#C[C@]1(O)CCC2C3CCC4=CC(=O)CCC4=C3[C@@H](c3ccc(OC)cc3)OC[C@@]21C (stereo partly drawn)
Response: > 1000 nM

----------
Test system: T47D human breast cancer cells
EXPERIMENT_SUMMARY: T47D Human Breast Cancer Cells Assay (alkaline phosphatase, luminescence)
Type: cell-based
EXPERIMENTAL_CONTEXT: Homo sapiens, T47D, 24 h, read-out: T47D IC50 (nM), T47D cells, 24 h with test compound, alkaline phosphatase assay (SEAP kit)
IC50 listing for selected compounds.

Some entries whose results are on file:
CC#C[C@]1(O)CCC2C3CCC4=CC(=O)CCC4=C3[C@@H](c3ccc(OC)cc3)OC[C@@]21C (stereo partly shown) [Compound 14]    > 1000 nM
C=CC[C@]1(O)CCC2C3CCC4=CC(=O)CCC4=C3[C@@H](c3ccc(OC)cc3)OC[C@@]21C (stereo partly shown) [Compound 17]    > 1000 nM
COc1ccc([C@H]2OC[C@@]3(C)C(CC[C@@]3(O)C#CC(F)(F)F)C3CCC4=CC(=O)CCC4=C32)cc1 (stereo partly shown) [Compound 19]    > 1000 nM

Query compound follows.
Prompt: Fill in the blank: the reported IC50 of C=CC[C@]1(O)CCC2C3CCC4=CC(=O)CCC4=C3[C@H](c3ccc(OC)cc3)OC[C@@]21C (stereo partly shown) [Compound 18] is ____.
Response: > 1000 nM

----------
Test system: T47D human breast cancer cells
EXPERIMENT_SUMMARY: T47D Human Breast Cancer Cells Assay (alkaline phosphatase, luminescence)
Format: cell-based
EXPERIMENTAL_CONTEXT: Homo sapiens, T47D, 24 h, read-out: T47D IC50 (nM), T47D cells, 24 h with test compound, alkaline phosphatase assay (SEAP kit)
IC50 listing for selected compounds.

Some entries whose results are on file:
COc1ccc([C@@H]2OC[C@@]3(C)C(CC[C@@]3(O)C#CC(F)(F)F)C3CCC4=CC(=O)CCC4=C32)cc1 (stereo partly drawn)    > 1000 nM
CC#C[C@]1(O)CCC2C3CCC4=CC(=O)CCC4=C3[C@H](c3ccc(OC)cc3)OC[C@@]21C (stereo partly drawn)    > 1000 nM

Query compound follows.
Prompt: What IC50 appears in the records for this compound with T47D human breast cancer cells? CSc1ccc([C@H]2OC[C@]3(C)C(C#Cc4ccccc4)=CCC3C3CCC4=CC(=O)CCC4=C32)cc1 (stereo partly drawn)
Response: > 1000 nM
